# System name: hERG channel (Homo sapiens)
# Construct: assay at Pharmaron Inc; host or cells: HEK293
# Sequence (Q12809 whole entry): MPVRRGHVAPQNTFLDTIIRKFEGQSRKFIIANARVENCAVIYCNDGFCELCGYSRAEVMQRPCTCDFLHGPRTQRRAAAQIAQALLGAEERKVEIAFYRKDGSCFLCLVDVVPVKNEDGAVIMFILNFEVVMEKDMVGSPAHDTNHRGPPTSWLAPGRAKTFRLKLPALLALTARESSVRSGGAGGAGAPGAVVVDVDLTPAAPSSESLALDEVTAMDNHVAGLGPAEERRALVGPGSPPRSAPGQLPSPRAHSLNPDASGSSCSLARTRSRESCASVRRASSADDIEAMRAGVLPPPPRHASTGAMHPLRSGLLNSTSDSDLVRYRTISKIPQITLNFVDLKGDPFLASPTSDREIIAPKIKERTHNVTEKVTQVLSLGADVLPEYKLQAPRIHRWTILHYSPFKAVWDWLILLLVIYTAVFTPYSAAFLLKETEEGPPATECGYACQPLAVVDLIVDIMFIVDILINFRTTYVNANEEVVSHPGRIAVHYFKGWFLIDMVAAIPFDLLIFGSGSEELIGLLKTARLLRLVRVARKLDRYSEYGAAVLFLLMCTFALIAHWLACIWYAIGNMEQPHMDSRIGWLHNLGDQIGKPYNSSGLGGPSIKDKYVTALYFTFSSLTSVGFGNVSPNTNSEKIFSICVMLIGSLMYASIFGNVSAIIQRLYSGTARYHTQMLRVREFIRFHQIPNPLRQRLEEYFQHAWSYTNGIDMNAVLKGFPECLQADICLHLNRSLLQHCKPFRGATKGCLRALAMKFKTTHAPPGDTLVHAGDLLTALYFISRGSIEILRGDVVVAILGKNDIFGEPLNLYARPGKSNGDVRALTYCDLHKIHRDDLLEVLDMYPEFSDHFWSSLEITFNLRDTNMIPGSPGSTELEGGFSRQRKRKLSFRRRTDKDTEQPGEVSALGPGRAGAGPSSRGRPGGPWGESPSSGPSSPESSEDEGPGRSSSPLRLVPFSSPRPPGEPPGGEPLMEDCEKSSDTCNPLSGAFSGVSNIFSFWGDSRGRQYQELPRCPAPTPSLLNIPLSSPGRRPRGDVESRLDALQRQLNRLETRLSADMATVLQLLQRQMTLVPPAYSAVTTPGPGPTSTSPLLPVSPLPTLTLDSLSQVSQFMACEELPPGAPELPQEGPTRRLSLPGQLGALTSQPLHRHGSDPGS
# Experiment summary: hERG channel inhibition, manual patch clamp
# Type: cell-based
# Experimental parameters: HEK293 cells transfected with hERG, patch clamp

Compound structure: COc1cc2ncnc(Nc3cccc(Cl)c3F)c2cc1OCCON1CCN(C)CC1
IC50, µM: 6.48
